system: HeLa S3 cells; experiment: Test for growth inhibition of HeLa S3 cells; assay type: cell-based; conditions: Homo sapiens, HeLa S3, 72 h, HeLa S3 cells, 72 hours with test compound, Cell Proliferation Kit II; read-out: Cell growth inhibition (IC50)
Labelling: IC50 reported below 7 µM becomes T; at or above becomes F.

These recorded examples may help you get a feel for the data.
                                   molecule  assigned_class
0  OCC(O)CN(CCSc1ccc(O)cc1)CCSc1ccc(O)cc1 (stereo not shown)               T
1  Oc1ccc(SCCOCCOCCOCCOCCOCCSc2ccc(O)cc2)cc1               F
2  NC(=O)C1CCCCN1C(=O)CN(CCSc1ccc(O)cc1)CCSc1ccc(O)cc1 (stereo not shown)               T

Lab note: IC50 threshold 7 µM. Does this molecule come in strictly under it? Oc1ccc(SCCN(CCSc2ccc(O)cc2)Cc2ccccc2O)cc1
T

Entry to check: O=C(CCN(CCSc1ccc(O)cc1)CCSc1ccc(O)cc1)N1CCCCC1
T

Entry to check: N=C(N)NCCN(CCSc1ccc(O)cc1)CCSc1ccc(O)cc1
F

Entry to check: O=C(CN(CCSc1ccc(O)cc1)CCSc1ccc(O)cc1)N1CCCCC1
T

Entry to check: Oc1ccc(SCCN(CCSc2ccc(O)cc2)Cc2ccncc2)cc1
T

----------
Each item that follows carries a reported IC50.
system: HeLa S3 cells; test: Test for growth inhibition of HeLa S3 cells; format: cell-based; settings: HeLa S3 cells, 72 hours with test compound, Cell Proliferation Kit II; read-out: Cell growth inhibition (IC50)
Write the figure, then the unit, nothing else.

>>> print(df.to_string())
                                   compound  result
0  NC(=O)CN(CCSc1ccc(O)cc1)CCSc1ccc(O)cc1 [Compound 224]  400 nM
1  NC(=O)CN(CCSc1ccc(O)cc1)CCSc1ccc(O)cc1 [Compound 225]  550 nM

Switching to the query record.
Tell me the measured IC50 of NC(=O)CN(CCSc1ccc(O)cc1)CCSc1ccc(O)cc1 [Compound 97] , please.
880 nM

----------
tested on: HeLa S3 cells; assay: Test for growth inhibition of HeLa S3 cells; format: cell-based; conditions: Homo sapiens, HeLa S3, 72 h, HeLa S3 cells, 72 hours with test compound, Cell Proliferation Kit II; read-out: Cell growth inhibition (IC50)
Each item that follows carries a reported IC50.
Give your result in nM as a bare value.

>>> df
                                   molecule      tested_on  measurement_kind  unit_of_measure  result
0  Oc1ccc(SCCCSc2ccc(O)cc2)cc1 [Compound 134]  HeLa S3 cells              IC50               nM    2050
1  CCN(CC)C(=O)CCN(CCSc1ccc(O)cc1)CCSc1ccc(O)cc1 [Compound 80]  HeLa S3 cells              IC50               nM    1430
2  O=C1CCC(=O)N1CCN(CCSc1ccc(O)cc1)CCSc1ccc(O)cc1 [Compound 86]  HeLa S3 cells              IC50               nM    3780
3  NC(=O)NCCN(CCSc1ccc(O)cc1)CCSc1ccc(O)cc1 [Compound 82]  HeLa S3 cells              IC50               nM    1300
4  CSCCN(CCSc1ccc(O)cc1)CCSc1ccc(O)cc1 [Compound 87]  HeLa S3 cells              IC50               nM    2570
5  O=C(CN(CCSc1ccc(O)cc1)CCSc1ccc(O)cc1)Nc1ncccn1 [Compound 211]  HeLa S3 cells              IC50               nM    3040

Tell me the measured IC50 of CC(CSc1ccc(O)cc1)Sc1ccc(O)cc1 (stereo not drawn) [Compound 152] , please.
18000

Entry to check: COCCOCCOCCN(CCSc1ccc(O)cc1)CCSc1ccc(O)cc1 [Compound 197]
4060

Entry to check: O=C(c1ccccc1)N(CCSc1ccc(O)cc1)CCSc1ccc(O)cc1 [Compound 114]
2740

----------
target: human RNR (purified R1 and R2 subunits) (Homo sapiens, UniProt P23921+P31350); construct: made in house; host or cells: Escherichia coli BL21(λDE3)pLysS, plasmids pETR1 and pETR2 (pET3a backbone); assay: In vitro measurement of human RNR inhibitory activity (conversion of CDP to dCDP, HPLC); format: biochemical; details: 100 μM CDP, 37° C., 30 minutes, read-out: RNR Inhibition (IC50)
measurement-kind: IC50 (µM)
Give your result in µM as a bare value.

These recorded examples may help you get a feel for the data.
In [3]: df
Out[3]:
                                   molecule  unit_of_measure  result
0  O=C(c1ccccn1)N(CCSc1ccc(O)cc1)CCSc1ccc(O)cc1               µM    4.14
1          Oc1ccc(SCCOCCOCCSc2ccc(O)cc2)cc1               µM     2.1
2  O=C(NCCCSc1ccc(O)cc1)C1C2C=CC(C2)C1C(=O)NCCCSc1ccc(O)cc1 (stereo not shown)               µM    1.36

Tell me the measured IC50 of Oc1ccc(SSc2ccc(O)cc2)cc1 , please.
6.59

Entry to check: O=C(c1ccncc1)N(CCSc1ccc(O)cc1)CCSc1ccc(O)cc1
1.69

Entry to check: Oc1ccc(SCCOCCSc2ccc(O)cc2)cc1
0.5

Entry to check: Oc1ccc(SCCC(O)CSc2ccc(O)cc2)cc1 (stereo not shown)
0.3

Entry to check: CC(CSc1ccc(O)cc1)Sc1ccc(O)cc1 (stereo not shown)
5.14

Entry to check: Oc1ccc(SCCNCCSc2ccc(O)cc2)cc1
3.64

Entry to check: CC(=O)CN(CCSc1ccc(O)cc1)CCSc1ccc(O)cc1
0.29

----------
Tested on: HeLa S3 cells
Assay: Test for growth inhibition of HeLa S3 cells
Type: cell-based
Conditions: Homo sapiens, HeLa S3, 72 h, HeLa S3 cells, 72 hours with test compound, Cell Proliferation Kit II; read-out: Cell growth inhibition (IC50)
Procedure: Test for Growth Inhibition of Hela S3 Cells HeLa S3 cells prepared at 1×10^4 cells/ml in MEM culture medium containing 10% fetal bovine serum and 2 mM glutamine were added to each well of a 96-well microtiter plate (0.1 ml for each well). The cells were cultured at 37° C. in a CO2 incubator for 24 hours, and then 0.05 ml of test compound appropriately diluted with the above medium was added to each well, and then the mixture was cultured at 37° C. in a CO2 incubator for 72 hours. […]
Each item that follows carries a reported pIC50.
Note on pIC50: it is the negative log10 of concentration, concentration in mol/L.

These recorded examples may help you get a feel for the data.
>>> print(df.to_string())
                                   molecule  result
0  O=C(CN(CCSc1ccc(O)cc1)CCSc1ccc(O)cc1)N1CCC[C@H]1CO [Compound 206]    5.48
1  C=CCN(CCSc1ccc(O)cc1)CCSc1ccc(O)cc1 [Compound 74]    5.70
2  Oc1ccc(SCCC(O)CSc2ccc(O)cc2)cc1 (centres unmarked) [Compound 184]    5.61
3  Oc1ccc(SCCN(CCSc2ccc(O)cc2)Cc2ccccc2)cc1 [Compound 98]    4.82

Given the entry CC1(C)OC(CSc2ccc(O)cc2)C(CSc2ccc(O)cc2)O1 (centres unmarked) [Compound 183] , what pIC50 was observed with HeLa S3 cells?
4.98

Entry to check: Oc1ccc(SCCN(CCSc2ccc(O)cc2)Cc2cccc(O)c2)cc1 [Compound 93]
5.04

Entry to check: O=C(CN(CCSc1ccc(O)cc1)CCSc1ccc(O)cc1)NCCO [Compound 207]
5.77

----------
Molecular target: human RNR (purified R1 and R2 subunits) (Homo sapiens, UniProt P23921+P31350)
Sequence (P23921 1-792): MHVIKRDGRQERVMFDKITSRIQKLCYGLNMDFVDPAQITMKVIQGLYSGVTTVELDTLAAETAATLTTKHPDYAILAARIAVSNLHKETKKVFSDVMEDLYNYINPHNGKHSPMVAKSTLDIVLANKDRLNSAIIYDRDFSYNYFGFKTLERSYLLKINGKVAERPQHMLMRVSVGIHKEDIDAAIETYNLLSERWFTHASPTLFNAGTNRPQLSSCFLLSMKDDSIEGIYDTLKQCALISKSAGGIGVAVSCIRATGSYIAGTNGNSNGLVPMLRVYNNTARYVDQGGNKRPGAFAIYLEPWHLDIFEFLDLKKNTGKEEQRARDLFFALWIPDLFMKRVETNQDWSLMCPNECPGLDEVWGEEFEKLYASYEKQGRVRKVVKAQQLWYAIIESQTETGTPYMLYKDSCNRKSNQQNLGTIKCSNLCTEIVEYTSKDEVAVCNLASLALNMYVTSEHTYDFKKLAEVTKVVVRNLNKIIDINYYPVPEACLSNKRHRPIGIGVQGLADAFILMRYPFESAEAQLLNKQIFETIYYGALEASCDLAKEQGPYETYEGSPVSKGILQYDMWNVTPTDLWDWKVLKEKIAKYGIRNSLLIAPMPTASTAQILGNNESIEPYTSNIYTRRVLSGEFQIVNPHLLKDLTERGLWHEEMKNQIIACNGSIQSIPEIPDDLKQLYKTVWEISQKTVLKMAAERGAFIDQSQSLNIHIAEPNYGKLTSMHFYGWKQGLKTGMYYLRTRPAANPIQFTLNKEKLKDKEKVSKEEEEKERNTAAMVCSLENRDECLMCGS
Sequence (P31350 1-389): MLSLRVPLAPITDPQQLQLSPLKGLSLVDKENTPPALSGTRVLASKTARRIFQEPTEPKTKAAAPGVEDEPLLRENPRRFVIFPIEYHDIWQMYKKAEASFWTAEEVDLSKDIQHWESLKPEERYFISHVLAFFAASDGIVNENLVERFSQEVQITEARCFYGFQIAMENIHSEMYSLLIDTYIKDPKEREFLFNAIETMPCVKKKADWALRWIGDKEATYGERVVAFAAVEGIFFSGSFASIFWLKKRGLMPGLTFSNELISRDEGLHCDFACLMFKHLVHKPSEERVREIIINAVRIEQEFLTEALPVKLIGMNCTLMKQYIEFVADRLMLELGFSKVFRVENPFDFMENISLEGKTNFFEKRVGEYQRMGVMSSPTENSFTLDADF
Assay: In vitro measurement of human RNR inhibitory activity (conversion of CDP to dCDP, HPLC)
Settings: 100 μM CDP, 37° C., 30 minutes, read-out: RNR Inhibition (IC50)
Labelling: IC50 reported below 2 µM becomes condition met; at or above becomes condition not met.

These recorded examples may help you get a feel for the data.
In [3]: df
Out[3]:
                                   compound     assigned_class
0  CC1CCc2ccccc2N1C(=O)N(CCSc1ccc(O)cc1)CCSc1ccc(O)cc1 (centres unmarked)  condition not met
1  O=C(CCN(CCSc1ccc(O)cc1)CCSc1ccc(O)cc1)N1CCOCC1  condition not met
2  N#CCCN(CCC#N)C(=O)CN(CCSc1ccc(O)cc1)CCSc1ccc(O)cc1      condition met

Lab note: IC50 threshold 2 µM. Does this compound come in strictly under it? CCN(CC)CCN(CCSc1ccc(O)cc1)CCSc1ccc(O)cc1
condition not met

Entry to check: Oc1ccc(SCCCCCCCSc2ccc(O)cc2)cc1
condition not met

Entry source: patent US6608061B2
